Assay: Cytotoxicity in vitro assay (ATP, CellTiter Glo, 72 h)
Type: cell-based
Conditions: African green monkey, Vero cells
Protocol: Vero cells, obtained from the Rio de Janeiro Cell Bank (BCRJ code 0245), were cultured in RPMI-1640 supplemented with 10% fetal bovine serum (FBS) and 1 mM L-glutamine, as previously described. Vero cells were used for drug screening assays and to obtain trypomastigote forms of T. cruzi. Vero cells were used as a cellular model to analyze the toxic effect of pyrazole derivatives, series 1(a–l), 2(a–l), 3(a–n), 4(a–c), and 5(a–c), and Benznidazole (Bz) on mammalian cells. […]
measured_quantity: CC50 at 72 h

Brc1ccc(-n2cc(C3=NCCN3)cn2)cc1 ... 309 µM
COc1ccc(-n2cc(C3=NCCN3)cn2)cc1 ... > 500 µM
O=C(Cn1ccnc1[N+](=O)[O-])NCc1ccccc1 [Bz, benznidazole, reference compound] ... > 500 µM

Lookup result for CC1CN=C(c2cnn(-c3cc(Cl)cc(Cl)c3)c2N)N1 (stereo not shown) ; measured CC50 at 72 h: > 500 µM

Entry `Clc1cccc(Cl)c1-n1cc(C2=NCCN2)cn1` ; CC50 at 72 h = > 500 µM

* * *

Reported melting point values follow for various compounds

Fc1cccc(-n2cc(C3=NCCN3)cn2)c1 ... 164 to 167 °C
NC(=O)c1cnn(-c2ccc(Br)cc2)c1 ... 242 to 244 °C
NC(=O)c1cnn(-c2ccc(Cl)c(Cl)c2)c1 ... 190 to 192 °C
NC(=O)c1cnn(-c2ccc(Cl)cc2)c1N ... 196 to 200 °C
Clc1ccc(-n2cc(C3=NCCN3)cn2)c(Cl)c1 ... 110 to 111 °C

# melting point (compound: NC(=O)c1cnn(-c2ccccc2)c1 [Compound 1a, 1-phenyl-1H-pyrazole-4-carboxamide] ) is 224 to 225 °C

Measured melting point of `Clc1cc(Cl)cc(-n2cc(C3=NCCN3)cn2)c1` : 83 to 84 °C

* * *

Test system: intracellular amastigotes of T. cruzi
Test: Activity against intracellular amastigotes in infected Vero cells (Dm28c-Luc, 72 h)
Assay type: cell-based, Trypanosoma cruzi
Details: Trypanosoma cruzi, Vero, 72 h, Vero cells infected with Dm28c-Luc, 72 h; read-out: Trypanocidal Activity Intracellular Amastigotes IC50
pIC50 by entry:
Lab note: report pIC50 as minus log10 of the concentration in molar units, number only.

Sample records with pIC50:
Clc1cccc(Cl)c1-n1cc(C2=NCCN2)cn1 [Compound 3f] ... 4.09
CC1CN=C(c2cnn(-c3cc(Cl)cc(Cl)c3)c2N)N1 (stereo not shown) [Compound 5b] ... 4.48
Cc1cc(Cl)ccc1-n1cc(C2=NCCN2)cn1 [Compound 3n] ... 4.61
CC1CN=C(c2cnn(-c3ccc(Cl)c(Cl)c3)c2N)N1 (stereo not shown) [Compound 5c] ... 4.46
Clc1cc(Cl)cc(-n2cc(C3=NCCN3)cn2)c1 [Compound 3d] ... 4.26
Cc1nn(-c2cc(Cl)cc(Cl)c2)c(N)c1C1=NCCN1 [Compound 4b] ... 4.04

The molecule Cc1nn(-c2ccc(Cl)c(Cl)c2)c(N)c1C1=NCCN1 [Compound 4c] showed pIC50 equal to 4.03

Sample Fc1ccc(-n2cc(C3=NCCN3)cn2)cc1 [Compound 3h] ; pIC50 observed: 4.19

* * *

Reported melting point values for a set of compounds

NC(=O)c1cnn(-c2cccc(Br)c2)c1N [Compound 2j] ... 138 to 142 °C

In plain terms, Brc1cccc(-n2cc(C3=NCCN3)cn2)c1 [Compound 3k] has a documented melting point of 116 to 120 °C

Item: NC(=O)c1cnn(-c2cc(Cl)cc(Cl)c2)c1 [Compound 1d] | melting point: 240 to 242 °C

Reported melting point ( NC(=O)c1cnn(-c2ccc(Cl)cc2Cl)c1 [Compound 1c] ) = 184 to 186 °C

Recorded melting point (compound Cc1cc(Cl)ccc1-n1cc(C2=NCCN2)cn1 [Compound 3n] ): 174 to 176 °C

Entry NC(=O)c1cnn(-c2ccc(Br)cc2)c1N [Compound 2i] ; melting point = 138 to 142 °C

* * *

Tested on: trypomastigote forms of T. cruzi
Assay: Phenotypic screening against T. cruzi trypomastigotes (Dm28c-Luc, luciferase viability, 24 h)
Assay type: cell-based, Trypanosoma cruzi
Conditions: Trypanosoma cruzi; Dm28c-Luc, 24 h; read-out: Trypanocidal Activity Trypomastigotes IC90
// IC90 lookup, one value per entry

Here is how some compounds turned out for IC90.
Cc1nn(-c2cc(Cl)cc(Cl)c2)c(N)c1C1=NCCN1 ... > 100 µM
Clc1ccc(-n2cc(C3=NCCN3)cn2)cc1Cl ... 93.7 µM
Clc1cc(Cl)cc(-n2cc(C3=NCCN3)cn2)c1 ... 93.5 µM

Summary for this compound, `Cc1nn(-c2cccc(Cl)c2)c(N)c1C1=NCCN1` : IC90 is > 100 µM

# IC90 of O=C(Cn1ccnc1[N+](=O)[O-])NCc1ccccc1 [Bz, benznidazole, reference compound] = > 100 µM

# compound CC1CN=C(c2cnn(-c3cc(Cl)cc(Cl)c3)c2N)N1 (stereo not drawn) ; its IC90 = > 100 µM

IC90 in this record for `Cc1nn(-c2ccc(Cl)c(Cl)c2)c(N)c1C1=NCCN1` : > 100 µM

Measured IC90 of `Brc1ccc(-n2cc(C3=NCCN3)cn2)cc1` : 95.3 µM

The compound listed as `Clc1ccc(-n2cc(C3=NCCN3)cn2)cc1` has a reported IC90 of > 100 µM

Item: CC1CN=C(c2cnn(-c3cccc(Cl)c3)c2N)N1 (stereo not drawn) | IC90: > 100 µM

Recorded result, CC1CN=C(c2cnn(-c3ccc(Cl)c(Cl)c3)c2N)N1 (stereo not drawn) , IC90: > 100 µM

Value of measured IC90 for the entry `Cc1ccc(-n2cc(C3=NCCN3)cn2)cc1Cl` : > 100 µM

* * *

Test system: trypomastigote forms of T. cruzi
Assay: Phenotypic screening against T. cruzi trypomastigotes (Dm28c-Luc, luciferase viability, 24 h)
Assay type: cell-based, Trypanosoma cruzi
Conditions: CC50 of Vero cells/IC50 of trypomastigote
measured_quantity: Trypomastigotes SI
I'd appreciate a reply containing only the number, no unit.

Cc1ccc(-n2cc(C3=NCCN3)cn2)cc1Cl ... 4.64
Clc1cc(Cl)cc(-n2cc(C3=NCCN3)cn2)c1 ... 5.78
Clc1ccc(-n2cc(C3=NCCN3)cn2)cc1Cl ... 7.39
Brc1ccc(-n2cc(C3=NCCN3)cn2)cc1 ... 5.36

Field: next compound
// sample `Clc1ccc(-n2cc(C3=NCCN3)cn2)cc1` , its Trypomastigotes SI was 4.27

* * *

System: intracellular amastigotes of T. cruzi
Test: Activity against intracellular amastigotes in infected Vero cells (Dm28c-Luc, 72 h)
Format: cell-based, Trypanosoma cruzi
Conditions: CC50 of Vero cells/IC50 of intracellular amastigote
Lab note: cut-off is 7. Strictly less in Intracellular Amastigotes SI is 1.0. Exactly 7 or more is 0.0.

Cc1cc(Cl)ccc1-n1cc(C2=NCCN2)cn1 ... 0.0
Brc1cccc(-n2cc(C3=NCCN3)cn2)c1 ... 0.0
CC1CN=C(c2cnn(-c3cc(Cl)cc(Cl)c3)c2N)N1 (centres unmarked) ... 0.0

Now examine the next entry.
Answer whether the compound `Cc1nn(-c2ccc(Cl)c(Cl)c2)c(N)c1C1=NCCN1` has Intracellular Amastigotes SI strictly less than 7
1.0

* * *

Assay: Cytotoxicity in vitro assay (ATP, CellTiter Glo, 72 h)
Type: cell-based
Conditions: African green monkey, Vero cells
API: label(entry) gives t if the entry's CC50 at 72 h is strictly smaller than 300 µM; on equality or larger values it gives f.

Here's what some known entries look like.
Brc1cccc(-n2cc(C3=NCCN3)cn2)c1 [Compound 3k] ... t
Clc1ccc(-n2cc(C3=NCCN3)cn2)c(Cl)c1 [Compound 3c] ... f
Clc1cccc(-n2cc(C3=NCCN3)cn2)c1 [Compound 3b] ... t
Clc1cc(Cl)cc(-n2cc(C3=NCCN3)cn2)c1 [Compound 3d] ... f
Cc1nn(-c2ccc(Cl)c(Cl)c2)c(N)c1C1=NCCN1 [Compound 4c] ... f

# check: CC50 at 72 h < 300 µM for Clc1ccc(-n2cc(C3=NCCN3)cn2)cc1 [Compound 3g]
t

Is CC50 at 72 h of Cc1cc(Cl)ccc1-n1cc(C2=NCCN2)cn1 [Compound 3n] strictly below 300 µM?
f

Dear reviewer, please state whether Cc1nn(-c2cc(Cl)cc(Cl)c2)c(N)c1C1=NCCN1 [Compound 4b] has CC50 at 72 h strictly beneath 300 µM.
f

Does the reported CC50 at 72 h of CC1CN=C(c2cnn(-c3cccc(Cl)c3)c2N)N1 (centres unmarked) [Compound 5a] stay below 300 µM?
f

A record lists Cc1ccc(-n2cc(C3=NCCN3)cn2)cc1Cl [Compound 3m] . Is its CC50 at 72 h below 300 µM?
t

Threshold test, CC50 at 72 h < 300 µM: Clc1ccc(-n2cc(C3=NCCN3)cn2)cc1Cl [Compound 3e]
f
